- Method Notes: MRT (0 to t) in Sprague-Dawley rat at 5 mg/kg, ip measured upto 24 hrs by LC-MS/MS analysis
- Assay type: ADME, organism-based
- Protocol Conditions: in vivo
Assay Readout: MRT last at 24 h
Answer format: number, then unit.

For the compound COc1ccc(C(=O)N2CCC3(CCN(C(=O)CN4CCC(COc5cnc(-c6cccc(Cn7nc(-c8cccc(C#N)c8)ccc7=O)c6)nc5)CC4)CC3)CC2)cc1N1CCC(=O)NC1=O , give its measured MRT last at 24 h value.
5.06 h

* * *

- Method Notes: AUC (0 to t) in Sprague-Dawley rat at 2 mg/kg, iv measured upto 24 hrs by LC-MS/MS analysis
- Assay type: ADME, organism-based
- Protocol Conditions: in vivo
Assay Readout: AUCt (ng·h/mL)
# number only, unit ng·h/mL dropped from output

For the molecule COc1ccc(C(=O)N2CCC3(CCN(C(=O)CN4CCC(COc5cnc(-c6cccc(Cn7nc(-c8cccc(C#N)c8)ccc7=O)c6)nc5)CC4)CC3)CC2)cc1N1CCC(=O)NC1=O , give its measured AUCt value.
532
